Cited source: the supplement of paper PMC10126150

// switch fluorescence ratio lookup, one value per entry
- Tested on: ATP;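 further: ATP exposure 15 min at 22 °C before imaging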
- TEST NAME: switch fluorescence ratio, 500 uM ATP over buffer (Cy3 cluster intensity, sum of 5 cycles each) (fold (ratio)); higher = stronger signal-on switching upon ATP binding; sequences stand for … in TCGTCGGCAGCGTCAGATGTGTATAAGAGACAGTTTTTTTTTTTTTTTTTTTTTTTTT…TC
- CONDITION: aptamer strand: ATP DNA aptamer (quencher-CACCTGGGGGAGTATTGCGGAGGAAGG + anchor), 100 nM annealed; ATP concentration: 500 uM
Output: the number by itself.

Example results:
{"RESIDUE CODES": "CTATTCAGGG", "VALUE": 1.02}
{"RESIDUE CODES": "GGGAAAGGAC", "VALUE": 1.03}
{"RESIDUE CODES": "AATGTTTGTT", "VALUE": 0.971}
{"RESIDUE CODES": "TAGGGAGAAA", "VALUE": 1.46}
{"RESIDUE CODES": "TTTTTATGGT", "VALUE": 0.984}
{"RESIDUE CODES": "CAGATACAAG", "VALUE": 1.04}
{"RESIDUE CODES": "ACCCGCCAGC", "VALUE": 3.96}
{"RESIDUE CODES": "TTTTTGGATC", "VALUE": 1}

Determine from records and report switch fluorescence ratio for TCCGGGGCGG
1.11

Determine from records and report switch fluorescence ratio for TTATTTGATA
1

Determine from records and report switch fluorescence ratio for CGACTAAGAG
1.02

Determine from records and report switch fluorescence ratio for GAATAAATAG
1

Determine from records and report switch fluorescence ratio for TTGACGATGT
1.17

Determine from records and report switch fluorescence ratio for GGCCTCGTAC
1.1

Determine from records and report switch fluorescence ratio for GGTTTATATA
1.01

Determine from records and report switch fluorescence ratio for CTATGACAGC
1.01

* * *

// switch fluorescence ratio lookup, one value per entry
- Tested on: ATP;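 further: ATP exposure 15 min at 22 °C before imaging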
- TEST NAME: switch fluorescence ratio, 500 uM ATP over buffer (Cy3 cluster intensity, sum of 5 cycles each) (fold (ratio)); higher = stronger signal-on switching upon ATP binding; sequences stand for … in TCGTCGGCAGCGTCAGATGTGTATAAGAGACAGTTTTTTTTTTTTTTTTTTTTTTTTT…TC
- CONDITION: aptamer strand: ATP DNA aptamer (quencher-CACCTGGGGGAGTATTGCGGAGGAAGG + anchor), 100 nM annealed; ATP concentration: 500 uM
Output: the number by itself.

Example results:
{"RESIDUE CODES": "TAAACCCTGC", "METRIC NAME": "switch fluorescence ratio", "VALUE": 1.07}
{"RESIDUE CODES": "ATGGGGGTAG", "METRIC NAME": "switch fluorescence ratio", "VALUE": 1.01}
{"RESIDUE CODES": "TTATCGTATT", "METRIC NAME": "switch fluorescence ratio", "VALUE": 0.987}
{"RESIDUE CODES": "AAAATCTGGT", "METRIC NAME": "switch fluorescence ratio", "VALUE": 1.03}
{"RESIDUE CODES": "GGGGTTTTAG", "METRIC NAME": "switch fluorescence ratio", "VALUE": 1.01}
{"RESIDUE CODES": "CAAACTTTGG", "METRIC NAME": "switch fluorescence ratio", "VALUE": 1.01}
{"RESIDUE CODES": "GTGTGAAAGC", "METRIC NAME": "switch fluorescence ratio", "VALUE": 1.01}
{"RESIDUE CODES": "TTTTGATGG", "METRIC NAME": "switch fluorescence ratio", "VALUE": 0.995}
{"RESIDUE CODES": "CCGAGGGCGC", "METRIC NAME": "switch fluorescence ratio", "VALUE": 1.2}
{"RESIDUE CODES": "AATTAAGGGG", "METRIC NAME": "switch fluorescence ratio", "VALUE": 0.997}

Next item in the queue.
Determine from records and report switch fluorescence ratio for TAGGCAGAGT
1.01

* * *

- Tested on: ATP;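 further: ATP exposure 15 min at 22 °C before imaging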
- TEST NAME: switch fluorescence ratio, 500 uM ATP over buffer (Cy3 cluster intensity, sum of 5 cycles each) (fold (ratio)); higher = stronger signal-on switching upon ATP binding; sequences stand for … in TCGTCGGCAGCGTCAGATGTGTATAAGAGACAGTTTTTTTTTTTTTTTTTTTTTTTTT…TC
- CONDITION: aptamer strand: ATP DNA aptamer (quencher-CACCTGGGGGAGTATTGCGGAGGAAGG + anchor), 100 nM annealed; ATP concentration: 500 uM
Give 1 when the value for switch fluorescence ratio is at least 1. Give -1 when it is less.

{"RESIDUE CODES": "TCCGGGTTGT", "LABEL VALUE": 1}
{"RESIDUE CODES": "GGGGAATCGC", "LABEL VALUE": -1}
{"RESIDUE CODES": "TTCATATACT", "LABEL VALUE": 1}
{"RESIDUE CODES": "ACGCTTTATT", "LABEL VALUE": 1}

Decide: switch fluorescence ratio of TGCCAGGATT >= 1?
1

Decide: switch fluorescence ratio of TAAAAGGGTC >= 1?
-1

Decide: switch fluorescence ratio of TTCAGAGGCG >= 1?
1

Decide: switch fluorescence ratio of CTGGGGGTGT >= 1?
1

Decide: switch fluorescence ratio of CACTGGGCGA >= 1?
1

Decide: switch fluorescence ratio of GATGAGTGTG >= 1?
-1

Decide: switch fluorescence ratio of GGACCGCATT >= 1?
1

Decide: switch fluorescence ratio of TAAGTATGCC >= 1?
-1

Decide: switch fluorescence ratio of GGCTGAAAAA >= 1?
-1

Decide: switch fluorescence ratio of AAGATTGAGC >= 1?
-1

Decide: switch fluorescence ratio of TCACCATATT >= 1?
1

Decide: switch fluorescence ratio of AAGCCCGCAC >= 1?
1

Decide: switch fluorescence ratio of AGTTTTGGGT >= 1?
-1

Decide: switch fluorescence ratio of GAGGCATTGT >= 1?
1

* * *

- System: ATP;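 further: ATP exposure 15 min at 22 °C before imaging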
- TEST NAME: switch fluorescence ratio, 500 uM ATP over buffer (Cy3 cluster intensity, sum of 5 cycles each) (fold (ratio)); higher = stronger signal-on switching upon ATP binding; sequences stand for … in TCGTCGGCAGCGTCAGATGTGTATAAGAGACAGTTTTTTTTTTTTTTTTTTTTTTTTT…TC
- CONDITION: aptamer strand: ATP DNA aptamer (quencher-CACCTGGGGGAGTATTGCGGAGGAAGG + anchor), 100 nM annealed; ATP concentration: 500 uM
// switch fluorescence ratio lookup, one value per entry
Output: the number by itself.

{"RESIDUE CODES": "GGCATACCGT", "switch fluorescence ratio": 0.997}
{"RESIDUE CODES": "AGTTTTGCGT", "switch fluorescence ratio": 1.01}
{"RESIDUE CODES": "GGTTGGCAGA", "switch fluorescence ratio": 0.99}
{"RESIDUE CODES": "GAGGGGTTTA", "switch fluorescence ratio": 1}
{"RESIDUE CODES": "GGAGTATGGG", "switch fluorescence ratio": 0.997}

Determine from records and report switch fluorescence ratio for ATCAATTTAG
1.02

Determine from records and report switch fluorescence ratio for CTGGGAGAAT
1

Determine from records and report switch fluorescence ratio for GCTGAGGATA
0.984

Determine from records and report switch fluorescence ratio for TGACGGGGTG
1.01

Determine from records and report switch fluorescence ratio for ATTGTACAGT
1.02

Determine from records and report switch fluorescence ratio for CGTCTTTTGG
1.02

Determine from records and report switch fluorescence ratio for TTTGAGTGCT
0.997

Determine from records and report switch fluorescence ratio for TTGGGGGGAT
1.02

Determine from records and report switch fluorescence ratio for TTTAAAAATT
0.987

Determine from records and report switch fluorescence ratio for TGGAACGGAG
0.98

Determine from records and report switch fluorescence ratio for GTTTATTTCT
1.02

Determine from records and report switch fluorescence ratio for GTTAATTTAG
0.987

* * *

- Test system: ATP;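 further: ATP exposure 15 min at 22 °C before imaging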
- TEST NAME: switch fluorescence ratio, 500 uM ATP over buffer (Cy3 cluster intensity, sum of 5 cycles each) (fold (ratio)); higher = stronger signal-on switching upon ATP binding; sequences stand for … in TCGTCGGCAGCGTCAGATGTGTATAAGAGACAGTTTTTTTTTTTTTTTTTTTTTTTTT…TC
- CONDITION: aptamer strand: ATP DNA aptamer (quencher-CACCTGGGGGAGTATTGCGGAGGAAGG + anchor), 100 nM annealed; ATP concentration: 500 uM
METRIC NAME: switch fluorescence ratio
Output: the number by itself.

Example results:
{"RESIDUE CODES": "CTTTTAGGCT", "switch fluorescence ratio": 1.02}
{"RESIDUE CODES": "TGATGGCATT", "switch fluorescence ratio": 0.989}

Determine from records and report switch fluorescence ratio for GCGAATATCT
1.02

Determine from records and report switch fluorescence ratio for GGGTCGTAGG
1

Determine from records and report switch fluorescence ratio for CATTAACGAG
1.01

Determine from records and report switch fluorescence ratio for CGCTTTTGGG
0.999
